Task for the reader: assign each of the following binders its reported ENTPD2 Biochemical Assay at 1 uM ATP IC50.
target: recombinant human ENTPD2 extracellular domain (residues 29-462) with C-terminal Avi-His6 tag (human, UniProt Q9Y5L3 29-462); experiment: cell-based or functional assay
Sequence (Q9Y5L3 29-462): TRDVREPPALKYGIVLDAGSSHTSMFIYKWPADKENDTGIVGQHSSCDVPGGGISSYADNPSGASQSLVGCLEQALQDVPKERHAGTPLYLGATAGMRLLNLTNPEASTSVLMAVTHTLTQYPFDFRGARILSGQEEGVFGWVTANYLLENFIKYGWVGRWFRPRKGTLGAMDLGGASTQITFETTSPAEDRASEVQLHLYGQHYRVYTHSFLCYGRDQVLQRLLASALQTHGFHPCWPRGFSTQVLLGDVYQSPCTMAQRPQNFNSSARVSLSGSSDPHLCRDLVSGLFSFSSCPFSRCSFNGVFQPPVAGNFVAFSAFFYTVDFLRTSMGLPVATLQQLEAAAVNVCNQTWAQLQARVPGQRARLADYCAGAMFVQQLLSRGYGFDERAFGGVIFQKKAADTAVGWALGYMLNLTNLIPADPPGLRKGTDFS
Give bare numbers, in nM.

Worked cases, answers included:
binder	experimental-value
ANTI-HUMAN ENTPD2 MAB1 (antibody, human IgG1, kappa, V domains shown) VH: EVQLVQSGAEVKKPGESLKISCKASGYTFTDYNMDWVRQMPGKGLEWMGDINPKYDISTYNQQFKGQVTISADKSIRTAYLQWSSLKASDTAMYYCARRGFFLYYGINYYYFDVWGQGTLVTVSS VL: DIQLTQSPSSLSASVGDRVTITCSASSSVSYIHWFQQKPGKAPKLLIYSTSNLASGVPSRFSGSGSGTFFTLTISSLQPEDFATYFCHQWSSYPWTFGQGTKVEIKR	0.52
ANTI-HUMAN ENTPD2 MAB16 (antibody, human IgG1, kappa, V domains shown) VH: DIQLQESGPGLVKPSQSLSLTCSVTGYSITSGYYWNWIRQFPGNKLEWMGYISYDGDNNYNPSLKNRISITRDTSKNQFFLKLSSVTTEDTATYYCAGGYYRYGLSYYYVMDYWGQGTSVTVSS VL: DTVLTQSPASLAVSLGQRATISCKASQSVDYDGNSYMNWYQQKPGQPPKLLIYAASNLESGIPARFSGSGSGTDFTLNIHPVEEEDAATYYCQQSNEDPPTFGGGTKLEIKR	77.3
ANTI-HUMAN ENTPD2 MAB17 (antibody, human IgG1, kappa, V domains shown) VH: EVQLQQFGAELVKPGASVKISCKASGYTFTDYNMDWVKQSHGKSLEWIGDINPKYDISTYNQQFKGKATLTVDKSSSTAYMELRSLTSEDTAVYYCARRGFFLYYGINYYYFDVWGAGTTVTVSS VL: QIVLTQSPAIMSASLGEEITLTCSASSSVSYIHWYQQKSGTSPTLLIYSTSNLASGVPSRFSGSGSGTFYSLTISSVEAEDAADYYCHQWSSYPWTFGGGTKLEIKR	0.27
ANTI-HUMAN ENTPD2 MAB20 (antibody, human IgG1, kappa, V domains shown) VH: EVQLQQFGAELVKPGASVKISCKASGYTFTDYNMDWVKQSHGKSLEWIGDINPNYDITSYNQKFKGKATLTVDKSSSTAYMELRSLTSEDTAVYYCARRGFFLYYGSSYYYFDVWGAGTTVTVSS VL: QIVLTQSPAIMSASLGEEITLTCSASSSVSYMHWYQQKSGTSPKLLIYSTSNLASGVPSRFSGSGSGTFYSLTISSVEAEDAADYYCHQWSSYPWTFGGGTKLEIKR	17.5
ANTI-HUMAN ENTPD2 MAB19 (antibody, human IgG1, kappa, V domains shown) VH: EVQLQQFGAELVKPGTSVKISCKASGYTFTDYNMDWVKQSHGKSLEWIGDINPNYDITTYNQRFKGKATLTVDKSSSTAYMELRSLTSEDTAVYYCARRGFFPYYGNSYYYFDVWGAGTTVTVSS VL: QIVLTQSPTIMSASLGEEITLTCSASSSVSYMHWYQQKSGTSPKLLIYSTSNLASGVPSRFSGSGSGTFYSLTISSVEAEDAADYYCHQWSNYPWTFGGGTKLEIKR	4.09

Continue with the binder presented below.
### Prompt Determine its reported ENTPD2 Biochemical Assay at 1 uM ATP IC50: ANTI-HUMAN ENTPD2 MAB21 (antibody, human IgG1, kappa, V domains shown) VH: EVQLQQSGPELVKPGASVKISCKTSGYTFTEYTMHWVKQSHGKSLEWIGGINPNNGITTYNQKFKGKATLTVDKSSSTAYMDLRSLTSEGSAVYYCARRGFPIYYYGTSLYYFDYWGQGTTLTVSS VL: QIVLTQSPAIMSASLGEEITLTCSASSSVSYMHWYQQRSGTSPKLLIYTTSNLASGVPSRFSGSGSGTFYSLTISSVEAEDAADYYCHQWSSYPWTFGGGTKLEIKR
### Response 0.87
